Hi, quick share: literature IC50 data for Dihydrofolate reductase (Rattus norvegicus), several sources combined.
Lab book: enter the figure in µM, no units written.

For reference, reported IC50 for CN(Cc1c[nH]c2nc(N)nc(N)c12)c1ccc(C(=O)N(C)C(CCC(=O)O)C(=O)O)cc1 (stereo not given) stands at 0.06

For reference, reported IC50 for `COc1ccccc1N(C)Cc1ccc2nc(N)nc(N)c2n1` stands at 0.12

For reference, reported IC50 for `COc1cc(Cc2cc(Cc3cc(OC)c(O)c(OC)c3)c(N)nc2N)cc(OC)c1O` stands at 24000

For reference, reported IC50 for `COc1cc(N(C)Cc2ccc3nc(N)nc(N)c3n2)cc(OC)c1OC` stands at 0.026

For reference, reported IC50 for `Nc1nc(N)c2cc(NCc3ccc(Oc4ccccc4)cc3)cnc2n1` stands at 2.9

For reference, reported IC50 for `Nc1nc(N)c2c(CSc3ccc4ccccc4c3)c[nH]c2n1` stands at 82.9

For reference, reported IC50 for `Cc1cc(Cl)ccc1NCc1ccc2nc(N)nc(N)c2c1` stands at 0.023

# ---- query compound ----
For reference, reported IC50 for `Nc1nc(N)c2cc(COC(=O)c3ccccc3)cnc2n1` stands at 3.9
